measurement target: mouse LTBP1-proTGFβ1 complex (mouse, UniProt Q8CG19 339-1712; P04202 30-390)
Sequence (Q8CG19 339-1712 limits assumed, chain 1 of 2): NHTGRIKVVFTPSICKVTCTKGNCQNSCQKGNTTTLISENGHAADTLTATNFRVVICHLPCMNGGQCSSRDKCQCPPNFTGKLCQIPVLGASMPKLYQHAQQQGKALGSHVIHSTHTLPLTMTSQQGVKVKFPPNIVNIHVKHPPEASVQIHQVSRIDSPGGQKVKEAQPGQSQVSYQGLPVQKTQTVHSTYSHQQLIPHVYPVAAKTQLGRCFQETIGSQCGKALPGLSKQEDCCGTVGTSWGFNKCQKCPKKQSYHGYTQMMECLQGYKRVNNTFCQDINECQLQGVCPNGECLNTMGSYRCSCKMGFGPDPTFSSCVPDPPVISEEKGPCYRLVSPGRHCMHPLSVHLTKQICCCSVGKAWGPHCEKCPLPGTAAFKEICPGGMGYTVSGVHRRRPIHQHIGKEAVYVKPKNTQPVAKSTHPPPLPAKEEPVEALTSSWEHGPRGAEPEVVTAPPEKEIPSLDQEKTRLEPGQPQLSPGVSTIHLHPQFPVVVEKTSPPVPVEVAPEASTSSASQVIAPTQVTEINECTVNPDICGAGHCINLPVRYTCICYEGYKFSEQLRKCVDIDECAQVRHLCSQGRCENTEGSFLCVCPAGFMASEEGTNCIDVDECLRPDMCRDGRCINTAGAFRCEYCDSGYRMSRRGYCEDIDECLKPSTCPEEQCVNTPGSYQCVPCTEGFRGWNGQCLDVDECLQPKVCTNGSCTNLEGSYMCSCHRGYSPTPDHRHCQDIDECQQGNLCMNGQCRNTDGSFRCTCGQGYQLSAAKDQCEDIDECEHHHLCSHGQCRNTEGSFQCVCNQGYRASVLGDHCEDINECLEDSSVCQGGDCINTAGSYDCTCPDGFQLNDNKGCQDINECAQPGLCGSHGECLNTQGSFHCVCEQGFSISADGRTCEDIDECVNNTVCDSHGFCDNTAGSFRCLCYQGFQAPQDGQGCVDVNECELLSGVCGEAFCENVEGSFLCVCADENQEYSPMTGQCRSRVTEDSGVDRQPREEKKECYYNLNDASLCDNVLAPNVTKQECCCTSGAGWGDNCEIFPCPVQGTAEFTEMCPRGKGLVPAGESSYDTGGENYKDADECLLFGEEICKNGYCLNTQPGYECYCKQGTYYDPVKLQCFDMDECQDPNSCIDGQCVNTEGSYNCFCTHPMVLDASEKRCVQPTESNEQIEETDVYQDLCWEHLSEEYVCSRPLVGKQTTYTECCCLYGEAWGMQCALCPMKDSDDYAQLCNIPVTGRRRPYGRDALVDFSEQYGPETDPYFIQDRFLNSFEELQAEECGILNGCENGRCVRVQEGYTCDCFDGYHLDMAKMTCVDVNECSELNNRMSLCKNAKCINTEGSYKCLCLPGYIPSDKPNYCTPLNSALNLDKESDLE
Sequence (P04202 30-390 limits assumed, chain 2 of 2): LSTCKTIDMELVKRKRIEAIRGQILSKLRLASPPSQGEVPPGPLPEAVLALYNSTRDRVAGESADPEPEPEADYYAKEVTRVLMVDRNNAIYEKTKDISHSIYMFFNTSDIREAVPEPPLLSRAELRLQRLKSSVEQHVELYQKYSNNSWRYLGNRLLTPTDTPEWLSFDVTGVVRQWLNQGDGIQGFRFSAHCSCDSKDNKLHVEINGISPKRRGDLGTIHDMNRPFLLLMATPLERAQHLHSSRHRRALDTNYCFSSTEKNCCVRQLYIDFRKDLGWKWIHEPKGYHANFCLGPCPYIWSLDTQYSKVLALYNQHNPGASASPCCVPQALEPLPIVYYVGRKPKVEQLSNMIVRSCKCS
test details: cell-based or functional assay
metric name: IC50, mLTBP1 assay (CAGA12 luciferase) (nM)
Answer with a number only, understood to be in nM.

See these solved cases before continuing.
SR-AB31 (antibody, IgG1, V domains shown, Cycle 3, lineage SR-AB22) VH: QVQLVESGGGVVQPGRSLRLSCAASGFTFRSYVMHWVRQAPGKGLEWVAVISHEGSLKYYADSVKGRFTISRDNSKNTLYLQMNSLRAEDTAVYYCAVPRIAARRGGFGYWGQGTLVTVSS VL: NFMLTQPHSVSESPGKTVTISCTRSSGNIDNNYVQWYQQRPGSSPTTVIYEDNQRPSGVPDRFSGSIDSSSNSASLTISGLKTEDEADYYCQSYDFNNQGVVFGGGTKLTVL ... 0.431
SR-AB34 (antibody, IgG1, V domains shown, Cycle 3, lineage SR-AB22) VH: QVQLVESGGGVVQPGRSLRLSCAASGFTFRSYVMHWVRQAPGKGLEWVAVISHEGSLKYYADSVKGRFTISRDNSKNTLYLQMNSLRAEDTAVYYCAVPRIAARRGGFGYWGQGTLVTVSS VL: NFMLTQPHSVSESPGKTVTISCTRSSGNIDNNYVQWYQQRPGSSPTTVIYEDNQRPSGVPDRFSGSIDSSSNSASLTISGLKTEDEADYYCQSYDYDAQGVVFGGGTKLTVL ... 0.423

Below: the item to evaluate.
Query string: Sample SR-AB39 (antibody, IgG1, V domains shown, Cycle 3, lineage SR-AB22) VH: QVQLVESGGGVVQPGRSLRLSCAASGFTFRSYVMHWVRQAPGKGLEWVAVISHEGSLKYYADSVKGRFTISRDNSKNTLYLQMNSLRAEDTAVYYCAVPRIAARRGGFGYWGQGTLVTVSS VL: NFMLTQPHSVSESPGKTVTISCTRSSGLIDDNYVQWYQQRPGSSPTTVIYEDAQRPSGVPDRFSGSIDSSSNSASLTISGLKTEDEADYYCQSYDHDEQGVVFGGGTKLTVL — what was its IC50, mLTBP1 assay (CAGA12 luciferase)?
Result string: 0.479
